Quick reference: melting point of the listed items.
observable: melting point (°C)

INSERT INTO assay_data (smiles_entry, value_reported) VALUES
  ('COC(=O)C(C(=O)OC)=C(/C=C/Cl)CCl', 56),
  ('O=CNc1ccnc(C(=O)Nc2ccc(Oc3ccccc3)cc2)c1O', 208);

====

Quick reference: melting point of the listed items.
observable: melting point

INSERT INTO assay_data (compound, value_reported) VALUES
  ('O=C1CC[N+]([O-])=C(c2ccccc2F)c2cc(Cl)ccc21', '166 to 168 °C'),
  ('COc1ccc(C=CC(=O)c2c(OC)cc(OC)cc2OC(=O)c2ccccc2)cc1', '134 °C'),
  ('Cc1noc(NS(=O)(=O)c2cccc3cccnc23)c1Br', '169 to 171 °C'),
  ('CCc1cc([N+](=O)[O-])c(Cl)c([N+](=O)[O-])c1COC', '81 to 82 °C'),
  ('NC(=O)c1cc(Oc2ccc3c(C(=O)Nc4cccc(C(F)(F)F)c4)cccc3c2)ccn1', '117 to 120 °C'),
  ('Cc1cccc(NC(=O)N[C@H]2C[C@@](N)(C(=O)O)[C@@H]3[C@@H](C(=O)O)[C@@H]32)c1 (relative stereo)', '> 250 °C'),
  ('CC(C)(C)OC(=O)N1CCCCN1C(=O)OCc1ccccc1', '71 to 72 °C'),
  ('CCOC(=O)/C=C/c1cn(-c2ccccc2)nc1OCc1ccccc1', '105 to 106 °C'),
  ('O=C(Nc1ccc(-n2nc(C(F)(F)F)cc2C(F)(F)F)cc1)C1CC1c1ccccc1 (stereo not given)', '176 to 178 °C'),
  ('CCn1c(CCl)nc2c([N+](=O)[O-])cc(Br)cc21', '154 to 155 °C');

====

Quick reference: melting point of the listed items.
observable: melting point

INSERT INTO assay_data (molecule, value_reported) VALUES
  ('Oc1ccccc1C=NC1=NN(c2cccc(C(F)(F)F)c2)CC1', '156 °C'),
  ('CC1CC2=CC(=O)CCC2C2C(Cl)CC3(C)C(=O)CCC3C12 (centres undefined)', '215 °C'),
  ('O=C(Cc1ccc2ccn(C3CCN(CCc4ccccc4F)CC3)c2c1)NCCO', '128 to 129 °C'),
  ('CCOC(=O)c1cnc2c3cc(NC(=O)C(C)C(C)CC)ccc3c(C)cn2c1=O (centres undefined)', '216 to 218 °C'),
  ('C=C(COC(=O)CCCCCCBr)COC(=O)NCCCCCCCCCCCCCCCCCC', '49 °C'),
  ('O=C(O)c1cccc(Oc2cccc(-c3nn(Cc4ccc(C(F)(F)P(=O)(O)O)c(F)c4)c(=Nc4ccc(Cl)c(Cl)c4)s3)c2)c1', '153 to 156 °C'),
  ('O=C(NO)[C@H](CNS(=O)(=O)c1ccc(OCC2CC2)cc1)N1CCOCC1', '147 °C'),
  ('CP(C)(=O)C(O)C(=O)OCC(=O)c1ccccc1 (centres undefined)', '147 °C'),
  ('N#CC12COc3cc(Cl)ccc3C1=NN(C(=O)Nc1ccc(C(F)(F)F)cc1)C2 (centres undefined)', '227 to 229 °C'),
  ('CCOC(=O)c1cc2c(C)cccc2n1CCC(=O)OC(C)(C)C', '78 to 79 °C'),
  ('Cn1c2c3ccccc3nc-2cc2ccccc21', '178 to 180 °C'),
  ('COc1ccc(-c2cc3cc(F)c(F)cc3[nH]2)cc1NS(=O)(=O)c1cccc([N+](=O)[O-])c1', '228 to 230 °C'),
  ('Cc1c([N+](=O)[O-])oc2ccc(-c3ccc(CC(=O)O)cc3)cc12', '229 to 230 °C'),
  ('CCCCCCC(=O)Oc1cc(-c2nc3ccccc3[nH]c2=O)cc([N+](=O)[O-])c1OC(=O)CCCCCC', '186 to 188 °C'),
  ('CC(C)(C)OC(=O)NC(C)(C)c1ccc(-c2nc(Nc3ccc(CCN4CCOCC4)cc3)ncc2C#N)cc1', '200 °C'),
  ('Cc1noc(C)c1-c1cn(Cc2ccccc2)c(=O)c2ccncc12', '159 to 161 °C'),
  ('Cn1c(-c2ccccc2Cl)cc2ncccc2c1=O', '152 to 153 °C'),
  ('CS(=O)(=O)c1cccc(NC(=O)c2cnn3c(C(F)(F)F)cc(-c4ccc(Cl)c(Cl)c4)nc23)c1', '263 °C'),
  ('CCC(=O)c1[nH]c(=O)[nH]c1CC', '212 to 213 °C');

====

Quick reference: melting point of the listed items.
observable: melting point

INSERT INTO results (molecule, value_reported) VALUES
  ('Cc1nc(-c2cccc([N+](=O)[O-])c2)cs1', '87 to 88 °C'),
  ('CN1C(=O)CN=C(c2cccc(Cl)c2)c2cc(C(=O)c3ccc(Cl)cc3)ccc21', '176 °C'),
  ('CCCN(CCC)c1ccc(CCC(=O)O)c2c1CCCN2C(=O)OC(C)(C)C', '84 to 86 °C'),
  ('CC1CC(N)=NN1c1ccccn1 (stereo not drawn)', '154 to 157 °C'),
  ('O=C(O)c1ccc(NCC=Cc2ccccc2)cn1', '178 to 183 °C'),
  ('c1ccc(-c2ccc(NCc3nccc(-c4ccc(-c5ccc(N(c6ccccc6)c6ccccc6)cc5)cc4)n3)cc2)cc1', '224 to 225 °C'),
  ('O=C(NCc1ccc(/C=C/C(c2cc(Cl)c(Cl)c(Cl)c2)C(F)(F)F)cc1Cl)C(=O)NCC(F)(F)F (stereo not drawn)', '161 to 163 °C'),
  ('CC(C)NC(=O)c1c(NC(=O)c2cc(C(F)(F)F)nn2-c2ncccc2Cl)ccc2cn[nH]c12', '203 to 205 °C'),
  ('COCCOc1ccc(CC(C)CO)c(Oc2ncc(C(F)(F)F)cc2Cl)c1 (stereo not drawn)', '84 to 86 °C'),
  ('COc1ccc(CNC(Nc2ccccc2)=C(C#N)C(=O)OC(C)(C)C)cc1', '158 to 159 °C'),
  ('CCN(CC)c1ccc(F)c2nc3n(c12)CCCN3c1ccc(Cl)cc1Cl', '170 to 172 °C'),
  ('OCC(O)Cc1c(OCc2ccccc2)ccc2ncccc12 (stereo not drawn)', '160 to 162 °C'),
  ('CCCCCCCCCCCCCCCCCCN(C)CC(O)COC(c1ccccc1)(c1ccccc1)c1ccccc1 (stereo not drawn)', '45 °C'),
  ('O=C1CCCN1c1nc(-n2ccnc2)c(I)c(C(F)(F)F)n1', '195 to 197 °C'),
  ('O=C(Cl)c1ccc(Oc2ccc(Oc3ccccc3)cc2)cc1', '85 to 89 °C'),
  ('Cc1cc(N)c(Cl)c(N)c1', '114 to 116 °C'),
  ('Cc1cccc2c1nc(COc1ccc(Cl)cc1)n2CCC(C)C(=O)N1CCCC1 (racemic)', '140 to 142 °C'),
  ('CCCCCNC(=O)N1CCC(c2nc(C3=NOC(c4ccccc4)C3)cs2)CC1 (stereo not drawn)', '132 to 134 °C'),
  ('CCCc1ccc(NC2CCN(c3ccc(OC[C@@]4(C)Cn5cc([N+](=O)[O-])nc5O4)cc3)CC2)cc1', '222 to 223 °C'),
  ('COCCONS(=O)(=O)c1ccccc1', '110 to 112 °C'),
  ('CC(=O)OC1Oc2ccc(OS(C)(=O)=O)cc2C1(C)C (stereo not drawn)', '84 to 85 °C'),
  ('CC1SC(=O)NN=C1c1ccc2c(c1)CCCN2C(=O)c1ccc2c(c1)OCO2 (single isomer, unassigned; (-))', '180 °C'),
  ('COc1ccc(C(C)(O)Cc2ccncc2)cc1OC1CCCC1 (stereo not drawn)', '99 to 101 °C'),
  ('CCc1cc(C(F)(C(F)(F)F)C(F)(F)C(F)(F)F)cc(C)c1NC(=O)c1cccc(NC(=O)c2ccc(C#N)cc2C)c1OC (stereo not drawn)', '104 to 105 °C'),
  ('O=C(Nc1ccccn1)Nc1nc(-c2ccccc2)cs1', '247 to 249 °C'),
  ('Cc1ccc(S(=O)(=O)OCC2COc3ccc4[nH]c(=O)[nH]c4c3O2)cc1 (stereo not drawn)', '202 to 204 °C'),
  ('Cc1ncccc1Oc1ccc(NC(=O)NCCc2ccccc2)cn1', '136 to 138 °C'),
  ('Cc1cc(Br)cc2ccc(Cl)nc12', '114 to 116 °C'),
  ('CCNC1CN(c2cc3c(cc2F)c(=O)c(C(=O)O)cn3C2CC2)C1', '220 to 224 °C'),
  ('NC(=O)NN=Cc1ccc(OC2C3CC4CC(C3)CC2C4)cc1 (stereo not drawn)', '226 to 228 °C'),
  ('COc1ccc(C(=O)O)cc1C(=O)NCc1ccc(C(F)(F)F)cc1', '236 °C'),
  ('Cc1ccc(-c2[nH]nc(COCCCO[N+](=O)[O-])c2-c2ccc(S(N)(=O)=O)cc2)cc1', '62 °C'),
  ('O=C/C=C/c1ccc2ccccc2n1', '85 °C'),
  ('COC(=CCl)C1(O)CCC2C3CCC4=CC(=O)CCC4(C)C3=CCC21C (stereo not drawn)', '197 to 199 °C'),
  ('CC(NC(=S)NCC(COC(=O)C(C)(C)C)Cc1ccc(C(C)(C)C)cc1)c1ccc(NS(C)(=O)=O)cc1 (stereo not drawn)', '87 °C'),
  ('COc1ccc(C[N+](=O)[O-])c(C=CC[N+](=O)[O-])c1OCc1ccccc1', '149 to 150 °C'),
  ('COc1cc([N+](=O)[O-])c2nc(N)ccc2c1', '195 to 197 °C'),
  ('CCc1cc(OCc2ccc(-c3ccccc3-c3nnn(C(c4ccccc4)(c4ccccc4)c4ccccc4)n3)cc2)c2nc(OC(C)C)c(Cl)cc2n1', '179 to 183 °C');
